System: Es-2
Experiment: Primary qHTS to identify gynecologic anti-cancer compounds using libraries of approved drugs and bioactive compounds (AID 1345084); also: nearly all actives have a fitted effect of over 55% in size; also: potency is read from the fitted curve at half-maximal effect
Conditions: Gynecologic cancer cell panel viability, ATPlite luminescence, 48 h; series mostly up to 57.5 µM
Records with an inconclusive call do not appear. The source made the active and inactive calls. Calls follow the shape of the dose curve; as a rule, active = well fitted cell-killing curve with a large enough effect; inconclusive = small, poorly fitted or top-dose-only effect, or effect the other way; inactive = flat fitted curve, though single readings scatter.
property: Potency

Sample answers from the record:
[[record]]
molecule = "Nc1nc2c(c(=O)[nH]1)C[C@@H](CCc1ccc(C(=O)N[C@@H](CCC(=O)O)C(=O)O)cc1)CN2"
measurement = "0.282 µM (active)"

[[record]]
molecule = "CC1=C(CO)C(=O)O[C@@H]([C@@H](C)[C@H]2CC[C@H]3[C@@H]4C[C@H]5O[C@]56[C@@H](O)C=CC(=O)[C@]6(C)[C@H]4CC[C@]23C)C1"
measurement = "11.2 µM (active)"

[[record]]
molecule = "CC(C)CCC1(O)C(=O)C(C)(C)C(O[C@@H]2O[C@H](CO)[C@@H](O)[C@H](O)[C@H]2O)C(C)(C)C1O (some centres undefined)"
measurement = "inactive"

[[record]]
molecule = "Cc1cc(C(=O)Nc2cccc(C(=O)Nc3cccc(C(F)(F)F)c3)c2)on1"
measurement = "inactive"

[[record]]
molecule = "CC(Nc1ncnc2nc[nH]c12)c1cc2cccc(Cl)c2c(=O)n1-c1ccccc1 (centres undefined)"
measurement = "inactive"


Documented Potency of "C[C@H]1CC(=O)Nc2cccc(-c3cnn(C(C)(C)C)c3)c2N1" : inactive

The recorded Potency for "C/C1=C\CCC2=C[C@@H](OC2=O)c2c(C)coc2C1" is inactive

Looking up COC(=O)CC(O)C1OC(c2ccccc2)C(O)C1O (centres undefined) , I see its Potency listed as inactive

Sample "C[C@@H](O)[C@H](NC(=O)c1ccc(C#Cc2ccc(CN3CCOCC3)cc2)cc1)C(=O)NO" ; Potency observed: inactive

The reported measurements were obtained from PubChem BioAssay (NCATS).
